Tested on: basal gastric acid secretion
assayRemarks: Inhibitory effect on the basal gastric acid secretion in pylorus-ligated rats (Shay's rat model)
Assay type: in vivo, Sprague Dawley (SD) rats
conditionParameters: 5 h, male SD rats, 3 mg/kg/2 ml into the duodenum, five hours after the ligation, total gastric acid secretion vs control group
Protocol: 3) Inhibitory Effect on the Basal Gastric Acid Secretion in Pylorus-Ligated Rats Assays for determining inhibitory effect of the compounds of the present invention on the basal gastric acid secretion was performed according to Shay's rat model (Shay, H., et al., 1945, gastroenterology, 5, p. 43-61). […] The amount of the gastric juice and its pH were measured. The acidity of the gastric juice was determined by 0.1 N-NaOH volume (ueq/mL) for automatic titration of gastric acid to pH 7.0. […]
Structures can show the parent of a compound that is named as a salt.
measureName: inhibition in vivo at 3 mg/kg

Take a look at these entries with their results.
INSERT INTO results (compound, assaytarget, reading) VALUES
  ('CNCc1cn(S(=O)(=O)c2cccnc2)c2cc(Nc3cccnc3OC)ccc12 [Example 108, hydrochloride]', 'basal gastric acid secretion', '49%'),
  ('CNCc1cn(S(=O)(=O)c2cccc(F)c2)c2cc(Nc3ccc(Cl)nc3C(F)(F)F)ccc12 [Example 143, hydrochloride]', 'basal gastric acid secretion', '53%'),
  ('CNCc1cn(S(=O)(=O)c2cccc(F)c2)c2cc(Nc3ccc(F)cc3C)ccc12 [Example 138, hydrochloride]', 'basal gastric acid secretion', '55%');

Lookup result for CNCc1cn(S(=O)(=O)c2cccnc2)c2cc(Nc3ccc(OC)cc3[N+](=O)[O-])ccc12 [Example 52, hydrochloride] ; measured inhibition in vivo at 3 mg/kg: 70%

Lookup result for CNCc1cn(S(=O)(=O)c2cncc(F)c2)c2cc(Nc3ccc(C(F)(F)F)nc3Cl)ccc12 [Example 218, hydrochloride] ; measured inhibition in vivo at 3 mg/kg: 49%

Lookup result for CNCc1cn(S(=O)(=O)c2cccnc2)c2cc(Nc3ccc(C(F)(F)F)cc3Cl)ccc12 [Example 34, hydrochloride] ; measured inhibition in vivo at 3 mg/kg: 45%

Lookup result for CNCc1cn(S(=O)(=O)c2cccnc2)c2cc(Nc3ccc(OC)nc3Cl)ccc12 [Example 123, hydrochloride] ; measured inhibition in vivo at 3 mg/kg: 40%

Lookup result for `CNCc1cn(S(=O)(=O)c2cccnc2)c2cc(Nc3ccc(C)cc3Cl)ccc12` ; measured inhibition in vivo at 3 mg/kg: 48%

Lookup result for CNCc1cn(S(=O)(=O)c2cncc(F)c2)c2cc(Nc3ccc(C)cc3Cl)ccc12 [Example 211, hydrochloride] ; measured inhibition in vivo at 3 mg/kg: 43%

Lookup result for CNCc1cn(S(=O)(=O)c2cccnc2)c2cc(Cc3ccc(C)cc3)ccc12 [Example 270, hydrochloride] ; measured inhibition in vivo at 3 mg/kg: 38%

Lookup result for CNCc1cn(S(=O)(=O)c2cccc(F)c2)c2cc(Nc3ccc(OC)cc3F)ccc12 [Example 139, hydrochloride] ; measured inhibition in vivo at 3 mg/kg: 40%

Lookup result for CNCc1cn(S(=O)(=O)c2cccnc2)c2cc(Nc3cc(F)c(C)cc3F)ccc12 [Example 72, hydrochloride] ; measured inhibition in vivo at 3 mg/kg: 49%

Lookup result for CNCc1cn(S(=O)(=O)c2cncc(F)c2)c2cc(Nc3ccc(F)cc3C)ccc12 [Example 212, hydrochloride] ; measured inhibition in vivo at 3 mg/kg: 56%

Lookup result for CNCc1cn(S(=O)(=O)c2cccnc2)c2cc(Cc3ccc(C)cc3Cl)ccc12 [Example 267, hydrochloride] ; measured inhibition in vivo at 3 mg/kg: 44%
